Where do these numbers come from? They come from patent EP3800188A1.

- study.system: human IRAK4 (Homo sapiens)
- Sequence (Q9NWZ3 1-460): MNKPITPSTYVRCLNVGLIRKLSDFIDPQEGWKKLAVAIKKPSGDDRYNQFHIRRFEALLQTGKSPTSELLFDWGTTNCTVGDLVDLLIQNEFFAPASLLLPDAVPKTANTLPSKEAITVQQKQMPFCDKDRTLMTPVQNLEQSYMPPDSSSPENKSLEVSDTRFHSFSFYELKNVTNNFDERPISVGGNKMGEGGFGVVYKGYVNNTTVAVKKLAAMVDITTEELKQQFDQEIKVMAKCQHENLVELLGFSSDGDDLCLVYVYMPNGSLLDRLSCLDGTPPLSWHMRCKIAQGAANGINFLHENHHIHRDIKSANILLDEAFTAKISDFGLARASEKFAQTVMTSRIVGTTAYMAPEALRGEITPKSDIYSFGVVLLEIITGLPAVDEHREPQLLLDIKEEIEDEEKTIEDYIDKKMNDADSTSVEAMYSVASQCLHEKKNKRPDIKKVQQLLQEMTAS

mol.smiles | IC50, nM
O=S1(=O)CCC(Nc2nc(N3CC(CN4CCOCC4)C3)c3cnn(-c4cccc(C(F)(F)F)c4)c3n2)CC1 | 34.2
CN(C)C1CN(c2nc(N[C@@H]3CNC(=O)C3)nc3c2cnn3-c2cccc(C(F)(F)F)c2)C1 | 15.7
O=C(O)CC1CN(c2nc(NC3CCS(=O)(=O)CC3)nc3c2cnn3-c2cccc(C(F)F)c2)C1 | 84.9
O=C1C[C@H](Nc2nc(N3CC(N4CCOCC4)C3)c3cnn(-c4cccc(C(F)(F)F)c4)c3n2)CN1 | 3.04
